Biological target: T1, NLpoly11S
T1 chain: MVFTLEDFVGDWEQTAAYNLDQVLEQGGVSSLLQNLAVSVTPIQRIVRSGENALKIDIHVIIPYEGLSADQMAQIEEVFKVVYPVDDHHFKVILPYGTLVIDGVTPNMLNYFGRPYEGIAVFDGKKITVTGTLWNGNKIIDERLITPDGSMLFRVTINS
Test: luminescence complementation titration, one-site specific binding fit
Each entry falls in a class defined on Kd; the bands are low: < 3 µM; middle: ≥ 3 µM and < 20 µM; high: ≥ 20 µM

Asked: Form field 'band' for VEGYRLFEKAS (modifications not checked) [array2.74]
Given back: middle

Asked: Category lookup for the binder VEGYRLFEEAS (modifications not checked) [array2.80]
Given back: high

Asked: Please let me know in which category the item VEGYRLFKEAS (modifications not checked) [array2.62] belongs.
Given back: high

Asked: Lab note: sort VEGYRLFEQES (modifications not checked) [array2.78] into the matching Kd band.
Given back: high

Asked: Into which category would you place VEGYRLFEKIS (modifications not checked) [array2.73] ?
Given back: low

Asked: Which bin, given its Kd, does VTGYRLFKKIS (modifications not checked) [array2.1] occupy?
Given back: low

Asked: GET /class?item= VEGYRLFQQIS (modifications not checked) [array2.67]
Given back: middle

Asked: Category of VTGYRLFQEIS (modifications not checked) [array2.16] , please.
Given back: low

Asked: Exam item: assign VEGYRLFEQAL (modifications not checked) [array2.104] to the correct category.
Given back: high

Asked: Which class does VTGYRLFEQEL (modifications not checked) [array2.51] fall in?
Given back: high

Asked: Pick a category. Item: VTGYRLFQQEL (modifications not checked) [array2.42]
Given back: middle

Asked: Would you mind sorting VTGYRLFKQAS (modifications not checked) [array2.5] into the appropriate category?
Given back: low

Asked: Into which category would you place VTGYRLFQQES (modifications not checked) [array2.15] ?
Given back: middle

Asked: Each binder maps to one class by Kd. Which class for VTGYRLFQQIL (modifications not checked) [array2.40] ?
Given back: high

Asked: Quick check: band for VEGYRLFKKIL (modifications not checked) [array2.82]
Given back: low

Asked: Quick check: band for VTGYRLFQKAL (modifications not checked) [array2.38]
Given back: low
